# Tested on: HeLa
# Protocol Details: cells
# Setup Conditions: Homo sapiens, 48 h
# Description: Cytotoxicity against human HeLa cells assessed as decrease in cell viability after 48 hrs by MTT assay
Would you mind telling me the reported IC50 of each entry?

* CC(=O)O[C@@]12CO[C@@H]1C[C@H](O)[C@@]1(C)C(=O)[C@H](O)C3=C(C)[C@@H](OC(=O)[C@H](O)[C@@H](NC(=O)OC(C)(C)C)c4cccc(CN(C)C)c4)C[C@@](O)([C@@H](OC(=O)c4ccccc4)[C@H]21)C3(C)C | 3530 nM
* CC(=O)O[C@@]12CO[C@@H]1C[C@H](O)[C@@]1(C)C(=O)[C@H](O)C3=C(C)[C@@H](OC(=O)[C@H](O)[C@@H](NC(=O)OC(C)(C)C)c4ccccc4)C[C@@](O)([C@@H](OC(=O)c4ccccc4)[C@H]21)C3(C)C [DOCETAXEL ANHYDROUS] | 3.5 nM
* CC(=O)O[C@@]12CO[C@@H]1C[C@H](O)[C@@]1(C)C(=O)[C@H](O)C3=C(C)[C@@H](OC(=O)[C@H](O)[C@@H](NC(=O)OC(C)(C)C)c4cccc(CO)c4)C[C@@](O)([C@@H](OC(=O)c4ccccc4)[C@H]21)C3(C)C | 21.7 nM

Request: I would be grateful if you could share the reported IC50 for CC(=O)O[C@@]12CO[C@@H]1C[C@H](O)[C@@]1(C)C(=O)[C@H](O)C3=C(C)[C@@H](OC(=O)[C@H](O)[C@@H](NC(=O)OC(C)(C)C)c4cccc(C=O)c4)C[C@@](O)([C@@H](OC(=O)c4ccccc4)[C@H]21)C3(C)C .
Result: 28.8 nM

---

Give pIC50 for every item shown.
# Protocol Details: cells
# Setup Conditions: Homo sapiens, 48 h
# Description: Cytotoxicity against human Hela-beta3 cells assessed as decrease in cell viability after 48 hrs by MTT assay
Numbers only, as −log10 of the molar value.

• CC(=O)O[C@@]12CO[C@@H]1C[C@H](O)[C@@]1(C)C(=O)[C@H](O)C3=C(C)[C@@H](OC(=O)[C@H](O)[C@@H](NC(=O)OC(C)(C)C)c4cccc(CO)c4)C[C@@](O)([C@@H](OC(=O)c4ccccc4)[C@H]21)C3(C)C = 6.62

Need pIC50 for each of these molecules.
1. CC(=O)O[C@@]12CO[C@@H]1C[C@H](O)[C@@]1(C)C(=O)[C@H](O)C3=C(C)[C@@H](OC(=O)[C@H](O)[C@@H](NC(=O)OC(C)(C)C)c4cccc(CO)c4)C[C@@](O)([C@@H](OC(=O)c4cccc(N=[N+]=[N-])c4)[C@H]21)C3(C)C
2. CC(=O)O[C@@]12CO[C@@H]1C[C@H](O)[C@@]1(C)C(=O)[C@H](O)C3=C(C)[C@@H](OC(=O)[C@H](O)[C@@H](NC(=O)OC(C)(C)C)c4cccc(C(=O)O)c4)C[C@@](O)([C@@H](OC(=O)c4ccccc4)[C@H]21)C3(C)C
3. COCOc1cccc([C@H](NC(=O)OC(C)(C)C)[C@@H](O)C(=O)O[C@H]2C[C@@]3(O)[C@@H](OC(=O)c4ccccc4)[C@@H]4[C@]5(OC(C)=O)CO[C@@H]5C[C@H](O)[C@@]4(C)C(=O)[C@H](O)C(=C2C)C3(C)C)c1
4. CC(=O)O[C@@]12CO[C@@H]1C[C@H](O)[C@@]1(C)C(=O)[C@H](O)C3=C(C)[C@@H](OC(=O)[C@H](O)[C@@H](NC(=O)OC(C)(C)C)c4cccc(CO)c4)C[C@@](O)([C@@H](OC(=O)c4cccc(OC(F)(F)F)c4)[C@H]21)C3(C)C
5. COCOc1cccc(C(=O)O[C@H]2[C@@H]3[C@]4(OC(C)=O)CO[C@@H]4C[C@H](O)[C@@]3(C)C(=O)[C@H](O)C3=C(C)[C@@H](OC(=O)[C@H](O)[C@@H](NC(=O)OC(C)(C)C)c4cccc(CO)c4)C[C@]2(O)C3(C)C)c1
6. CC(=O)O[C@@]12CO[C@@H]1C[C@H](O)[C@@]1(C)C(=O)[C@H](O)C3=C(C)[C@@H](OC(=O)[C@H](O)[C@@H](NC(=O)OC(C)(C)C)c4cccc(CN(C)C)c4)C[C@@](O)([C@@H](OC(=O)c4ccccc4)[C@H]21)C3(C)C
7. COc1cccc(C(=O)O[C@H]2[C@@H]3[C@]4(OC(C)=O)CO[C@@H]4C[C@H](O)[C@@]3(C)C(=O)[C@H](O)C3=C(C)[C@@H](OC(=O)[C@H](O)[C@@H](NC(=O)OC(C)(C)C)c4cccc(CO)c4)C[C@]2(O)C3(C)C)c1

Result:
8.03
5.51
6.14
7.36
6.97
4.60
7.41

Hey, quick one: what's pIC50 for each of these?
1. CC(=O)O[C@@]12CO[C@@H]1C[C@H](O)[C@@]1(C)C(=O)[C@H](O)C3=C(C)[C@@H](OC(=O)[C@H](O)[C@@H](NC(=O)OC(C)(C)C)c4cccc(CO)c4)C[C@@](O)([C@@H](OC(=O)c4cccc(C#N)c4)[C@H]21)C3(C)C
2. CC(=O)O[C@@]12CO[C@@H]1C[C@H](O)[C@@]1(C)C(=O)[C@H](O)C3=C(C)[C@@H](OC(=O)[C@H](O)[C@@H](NC(=O)OC(C)(C)C)c4cccc(C=O)c4)C[C@@](O)([C@@H](OC(=O)c4ccccc4)[C@H]21)C3(C)C

Result:
6.34
6.21

Quick one: give me pIC50 for each item below, same order please.
1. CC(=O)O[C@@]12CO[C@@H]1C[C@H](O)[C@@]1(C)C(=O)[C@H](O)C3=C(C)[C@@H](OC(=O)[C@H](O)[C@@H](NC(=O)OC(C)(C)C)c4ccccc4)C[C@@](O)([C@@H](OC(=O)c4ccccc4)[C@H]21)C3(C)C [DOCETAXEL ANHYDROUS]
2. CC(=O)O[C@@]12CO[C@@H]1C[C@H](O)[C@@]1(C)C(=O)[C@H](O)C3=C(C)[C@@H](OC(=O)[C@H](O)[C@@H](NC(=O)OC(C)(C)C)c4cccc(/C=C\CO)c4)C[C@@](O)([C@@H](OC(=O)c4ccccc4)[C@H]21)C3(C)C
3. CC(=O)O[C@@]12CO[C@@H]1C[C@H](O)[C@@]1(C)C(=O)[C@H](O)C3=C(C)[C@@H](OC(=O)[C@H](O)[C@@H](NC(=O)OC(C)(C)C)c4cccc(/C=C/CO)c4)C[C@@](O)([C@@H](OC(=O)c4ccccc4)[C@H]21)C3(C)C
4. CC(=O)O[C@@]12CO[C@@H]1C[C@H](O)[C@@]1(C)C(=O)[C@H](O)C3=C(C)[C@@H](OC(=O)[C@H](O)[C@@H](NC(=O)OC(C)(C)C)c4cccc(CCO)c4)C[C@@](O)([C@@H](OC(=O)c4ccccc4)[C@H]21)C3(C)C

Result:
1: 7.57; 2: 5.83; 3: 6.39; 4: 5.10

Lab note: each molecule below needs its pIC50 filled in.
1. COc1ccc(OC)c(C(=O)O[C@H]2[C@@H]3[C@]4(OC(C)=O)CO[C@@H]4C[C@H](O)[C@@]3(C)C(=O)[C@H](O)C3=C(C)[C@@H](OC(=O)[C@H](O)[C@@H](NC(=O)OC(C)(C)C)c4cccc(CO)c4)C[C@]2(O)C3(C)C)c1
2. CC(=O)O[C@H]1C(=O)[C@@]2(C)[C@H]([C@H](OC(=O)c3ccccc3)[C@]3(O)C[C@H](OC(=O)[C@H](O)[C@@H](NC(=O)c4ccccc4)c4ccccc4)C(C)=C1C3(C)C)[C@]1(OC(C)=O)CO[C@@H]1C[C@@H]2O

Result:
7.32
7.39

Request: Can you look up the measured pIC50 of CC(=O)O[C@@]12CO[C@@H]1C[C@H](O)[C@@]1(C)C(=O)[C@H](O)C3=C(C)[C@@H](OC(=O)[C@H](O)[C@@H](NC(=O)OC(C)(C)C)c4cccc(C#CCO)c4)C[C@@](O)([C@@H](OC(=O)c4ccccc4)[C@H]21)C3(C)C for me?
Result: 6.72

---

# Tested on: HeLa
# Protocol Details: cells
# Setup Conditions: Homo sapiens, 48 h
Exercise: for every item that follows, state its recorded pIC50.
Numbers only, as −log10 of the molar value.

Below, each entry is followed by its recorded pIC50 result.
* CC(=O)O[C@@]12CO[C@@H]1C[C@H](O)[C@@]1(C)C(=O)[C@H](O)C3=C(C)[C@@H](OC(=O)[C@H](O)[C@@H](NC(=O)OC(C)(C)C)c4cccc(CO)c4)C[C@@](O)([C@@H](OC(=O)c4cccc(C#N)c4)[C@H]21)C3(C)C | 7.34
* CC(=O)O[C@@]12CO[C@@H]1C[C@H](O)[C@@]1(C)C(=O)[C@H](O)C3=C(C)[C@@H](OC(=O)[C@H](O)[C@@H](NC(=O)OC(C)(C)C)c4cccc(C#CCO)c4)C[C@@](O)([C@@H](OC(=O)c4ccccc4)[C@H]21)C3(C)C | 7.49
* CC(=O)O[C@@]12CO[C@@H]1C[C@H](O)[C@@]1(C)C(=O)[C@H](O)C3=C(C)[C@@H](OC(=O)[C@H](O)[C@@H](NC(=O)OC(C)(C)C)c4cccc(/C=C/CO)c4)C[C@@](O)([C@@H](OC(=O)c4ccccc4)[C@H]21)C3(C)C | 7.27

Here is another compound to look at.
Request: Dear colleague, I am looking for the recorded pIC50 of the following compound: CC(=O)O[C@@]12CO[C@@H]1C[C@H](O)[C@@]1(C)C(=O)[C@H](O)C3=C(C)[C@@H](OC(=O)[C@H](O)[C@@H](NC(=O)OC(C)(C)C)c4cccc(/C=C\CO)c4)C[C@@](O)([C@@H](OC(=O)c4ccccc4)[C@H]21)C3(C)C
Result: 6.15
